Measured values drawn from a melting point compilation (Tetko et al.) for this set.

// melting point lookup, one value per entry

Some compounds with recorded melting point:
{"smiles-input": "CC(C)(C)OC(=O)N1CCN(Cc2cccc(N)c2)CC1", "melting point": "107 to 108 °C"}
{"smiles-input": "O=C(Cl)c1cccnc1Oc1ccc(Cl)cc1", "melting point": "79 to 80 °C"}

Here is the next item to consider.
Returns the measured melting point for the input compound. Input: COc1ccc(P(c2ccc(OC)cc2)c2ccc(OC)cc2)cc1
131 to 134 °C

====

// melting point lookup, one value per entry

{"compound": "COC(=O)C1=C(C)NC(=O)C1CC(=O)O (configuration not stated)", "melting point": "160 to 162 °C"}

Returns the measured melting point for the input compound. Input: Nc1ccccc1CN1CCOCC1
70 to 71 °C

Returns the measured melting point for the input compound. Input: Fc1nc(Cl)c2[nH]cnc2n1
162 to 163 °C

Returns the measured melting point for the input compound. Input: O=C(O)c1ccc(-c2ccsc2)cc1
282 to 283 °C

Returns the measured melting point for the input compound. Input: N#Cc1coc2ccccc2c1=O
174 to 178 °C

Returns the measured melting point for the input compound. Input: O=C(O)CC1NC(=O)NC1=O (configuration not stated)
213 to 216 °C

====

value-kind: melting point

{"smiles-input": "Cc1cc(Cl)ccc1[N+](=O)[O-]", "melting point": "23 to 25 °C"}
{"smiles-input": "N#Cc1cc(F)c(N)cc1F", "melting point": "95 to 97 °C"}
{"smiles-input": "CC(=O)N(C(C)=O)c1cc(C=CC(=O)O)ccc1C=CC(=O)O", "melting point": "310 to 315 °C"}

Returns the measured melting point for the input compound. Input: CC1=CC(=O)C(C)=CC1=O
123 to 126 °C

====

// melting point lookup, one value per entry

Some molecules with recorded melting point:
{"molecule": "CCCCCCCCCCCCCCCCCCN=C=S", "melting point": "29 to 33 °C"}
{"molecule": "CCOc1cc([N+](=O)[O-])c(OCC)cc1N1CCOCC1", "melting point": "139 to 141 °C"}
{"molecule": "O=C(O)C(=O)c1cccs1", "melting point": "89 to 95 °C"}

Returns the measured melting point for the input molecule. Input: CCOC(=O)c1nnc(N)o1
199 to 201 °C

Returns the measured melting point for the input molecule. Input: O=C(O)CN(CCO)CCO
190 to 192 °C

Returns the measured melting point for the input molecule. Input: O=[N+]([O-])C=Cc1cc(Cl)ccc1O
148 to 154 °C

====

// melting point lookup, one value per entry

Some compounds with recorded melting point:
{"compound": "Nc1ccc(-c2cccnc2)cc1", "melting point": "115 to 118 °C"}
{"compound": "O=Cc1ccc(CN2CCOCC2)cc1", "melting point": "53 to 56 °C"}
{"compound": "CNCC(O)c1ccccc1 (racemic)", "melting point": "74 to 76 °C"}
{"compound": "CSc1nc(N)nc(-c2cccs2)n1", "melting point": "176 to 177 °C"}
{"compound": "Oc1ccc(Br)c(F)c1", "melting point": "71.5 to 72.5 °C"}
{"compound": "O=C(Nc1ccccc1Cl)c1ccccc1", "melting point": "99 °C"}

Returns the measured melting point for the input compound. Input: CC(C(=O)O)C(=O)O
129 to 136 °C

Returns the measured melting point for the input compound. Input: Cc1nc(S)sc1C
166 to 168 °C

====

// melting point lookup, one value per entry

{"compound": "Cc1ccc(S(=O)(=O)N[C@H](c2ccccc2)[C@H](NS(=O)(=O)c2ccc(C)cc2)c2ccccc2)cc1", "melting point": "203 to 208 °C"}

Returns the measured melting point for the input compound. Input: Cc1nn(C)c(N2CCOCC2)c1C=O
74 to 76 °C

Returns the measured melting point for the input compound. Input: O=C(CBr)c1ccc2c(c1)OCCO2
115 to 116 °C

Returns the measured melting point for the input compound. Input: Cc1c(O)ccc2c1OC(C)(C)CC2=O
181 to 182 °C

====

value-kind: melting point

Some compounds with recorded melting point:
{"compound": "CC(=O)/C=C/c1oc2ccc(Cl)cc2c1-c1ccc(C)o1", "melting point": "118 to 119 °C"}
{"compound": "c1cc(-c2cnc3ccccc3n2)cc(-c2cnc3ccccc3n2)c1", "melting point": "202 to 203 °C"}
{"compound": "O=C(O)CCC1CCCCCCCCCCC1=O (configuration not stated)", "melting point": "88 to 90 °C"}
{"compound": "CCCOC1CCC2C3CC=C4CC5(CCC4(C)C3CCC12C)OCCO5 (configuration not stated)", "melting point": "213 to 214 °C"}
{"compound": "CC(=O)CC(=O)C(=O)O", "melting point": "99.5 °C"}

Returns the measured melting point for the input compound. Input: COc1ccc(-c2noc(C)c2C(=O)O)cc1
190 to 195 °C

Returns the measured melting point for the input compound. Input: OCc1cccc(OCCN2CCOCC2)c1
55 to 60 °C

====

// melting point lookup, one value per entry

Some compounds with recorded melting point:
{"smiles-input": "CC1(C)NC(=CC(=O)c2ccccc2)C(C)(C)N1O", "value-kind": "melting point", "result": "178 to 184 °C"}
{"smiles-input": "COc1ccc(C=CNNc2nc(C)cc(C)n2)cc1", "value-kind": "melting point", "result": "179 to 182 °C"}
{"smiles-input": "Nc1cccc(COc2ccccc2)c1", "value-kind": "melting point", "result": "45 to 47 °C"}
{"smiles-input": "Cc1nc(-c2ccc(C(=O)O)cc2)cs1", "value-kind": "melting point", "result": "263 to 268 °C"}
{"smiles-input": "CSc1nn(-c2ccccc2)cc1C#N", "value-kind": "melting point", "result": "106 to 108 °C"}

Returns the measured melting point for the input compound. Input: N#Cc1ccc(CS(=O)(=O)Cl)cc1
99.5 to 102 °C

Returns the measured melting point for the input compound. Input: CCOC(=O)c1cc2c(N)c(C(=O)OCC)sc2nc1C(F)(F)F
181 to 183 °C

Returns the measured melting point for the input compound. Input: CC(C)(C)c1ccc(Oc2ccc([N+](=O)[O-])cc2C=O)cc1
134 to 136 °C

Returns the measured melting point for the input compound. Input: FC(F)(F)c1cc(Cl)c2c(Cl)cc(Cl)cc2n1
111 to 114 °C

Returns the measured melting point for the input compound. Input: COc1ccc(Br)cc1[N+](=O)[O-]
87 to 88 °C

====

value-kind: melting point (°C)

Some compounds with recorded melting point:
{"smiles-input": "Nc1nc(-c2ccc(Br)cc2)cs1", "unit-symbol": "°C", "numeric-value": 184}
{"smiles-input": "O=C1OC(c2ccccc2)=NC1=Cc1cccs1", "unit-symbol": "°C", "numeric-value": 167}
{"smiles-input": "CC(=O)OCCC(C)C", "unit-symbol": "°C", "numeric-value": -78.5}
{"smiles-input": "O=C(c1ccco1)c1noc(-c2ccc([N+](=O)[O-])cc2)c1S(=O)(=O)c1ccccc1", "unit-symbol": "°C", "numeric-value": 138}

[I] Nc1c(CN2CCCCC2)c(=O)oc2ccccc12
[II] CCCCCOC(=O)CCCC
[III] O=C(Cl)c1cccc(C(=O)Cl)n1
[IV] CCCCCCCCCI
Please put the entries in order of rising melting point. Returns: the labels listed in the requested order.
II, IV, III, I
(II: -78.8 °C, IV: -20 °C, III: 59 °C, I: 190 °C)

====

value-kind: melting point (°C)

Some compounds with recorded melting point:
{"compound": "FC(Cl)(Cl)CCl", "value-kind": "melting point", "unit-symbol": "°C", "numeric-value": -140}
{"compound": "C#CC1(O)CCC2C3CCc4cc(OC5CCCC5)ccc4C3CCC21C (stereo unspecified)", "value-kind": "melting point", "unit-symbol": "°C", "numeric-value": 108}
{"compound": "NC1=NCC(c2ccccc2)O1 (stereo unspecified)", "value-kind": "melting point", "unit-symbol": "°C", "numeric-value": 136}

[I] CC(C)CCCC(C)C1CC[C@@]2(C)C3=CCC4[C@H](C)[C@@H](O)CC[C@]4(C)C3=CC[C@]12C (stereo partly specified)
[II] CCC(=O)c1cc(F)cc(F)c1
[III] C[C@H](C[C@H](I)C(C)(C)C)S(=O)(=O)c1ccccc1
[IV] CC(=O)NC(CCC(=O)O)C(=O)O (stereo unspecified)
[V] COC(CC(C)=O)OC
Hey, quick one: sort these by melting point, largest value first please. Returns: the labels listed in the requested order.
IV, I, III, II, V
(IV: 199 °C, I: 123 °C, III: 74 °C, II: 26 °C, V: -82 °C)

====

// melting point lookup, one value per entry

Some molecules with recorded melting point:
{"molecule": "O=C(Oc1c(F)c(F)c(F)c(F)c1F)c1ccc(OC2CCOCC2)nc1", "melting point": "114 to 118 °C"}
{"molecule": "CC(=O)C=CC1C(C)=CCCC1(C)C (centres undefined)", "melting point": "< 25 °C"}
{"molecule": "Cc1cc(O)cc(C)c1C#N", "melting point": "176 to 177 °C"}
{"molecule": "Cc1c(Cl)cccc1S(=O)(=O)Cl", "melting point": "71 to 73 °C"}
{"molecule": "NCCCC(=O)O", "melting point": "197 to 204 °C"}

Returns the measured melting point for the input molecule. Input: CCCOC(=O)c1ccc(OC(=O)c2ccc(C(=O)Oc3ccc(C(=O)OCCC)cc3)cc2)cc1
129 to 205 °C

Returns the measured melting point for the input molecule. Input: O=C(O)C(Br)=C(Br)C(=O)O
119 to 125 °C

Returns the measured melting point for the input molecule. Input: CCOC(=O)C(Br)=NNc1ccc([N+](=O)[O-])cc1
199 to 200 °C

Returns the measured melting point for the input molecule. Input: O=S(=O)(Cl)c1cc(Br)cc2c1OCC2
121 to 122 °C
